# System: T-47D breast
# procedureText: NCI tumour cell line growth inhibition, 48 h
*1 amine or outer side, *2 acyl side, *3 side chain or, on linkers, in order; H or OH if unused. Where a SMILES comes first, the peptide text is derived from it. [ ]: non-standard residue; d: D form. The star is where a group is joined. X12 = NCCCCC(N[*:1])C(=O)CN1CCCC1C(=O)[*:2]; Pentadecanoyl = CCCCCCCCCCCCCCC(=O)*

molecule | endpointUnit | comparisonOperator | TGI
COc1cc(OC)cc(-c2nc3ccccc3c(=O)[nH]2)c1 | µM | > | 100
CCN(CC)Cc1cc(Nc2c3ccc(Cl)cc3nc3c(C)cccc23)ccc1O | µM | = | 4.08
COc1ccc(C(=O)C(CN(C)C)c2ccccc2)cc1 (stereo not given) | µM | = | 9.01
CCCCOc1nc2ccccc2cc1C1CNC(=O)c2ccccc2N1 (stereo not given) | µM | > | 100
CCN(CC)CCn1nc2c3c(cccc3c1=O)-c1ccccc1-2 | µM | = | 27
CC(NC1=NCCO1)c1ccco1 (stereo not given) | µM | > | 100
COC(=O)CCCCCCCCC(=O)c1c(C)[nH]c(/C=C2\N=C(c3ccc[nH]3)C=C2OC)c1C | µM | > | 89.3
CCOC(=O)CCC1(C(=O)O[C@@H]2C[C@H](C)CC[C@H]2C(C)C)CCCCC1=O (stereo not given in full) | µM | > | 100
CCCCCCCCCCCCCCC(=O)NC(CCCCN)C(=O)CN1CCCC1C(=O)NCC(=O)NC(Cc1ccccc1)C(=O)N1CCCC1C(=O)NC(CO)C(=O)NC(Cc1ccc(O)cc1)C(=O)NC(CCCCN)C(=O)NC(CC(C)C)C(=O)NC(CCCN=C(N)N)C(=O)N1CCCC1C(=O)NCC(N)=O (stereo not given) (Pentadecanoyl-[X12]GFPSYKLRPG-NH2; configuration not given here) | µM | = | 40.7
CC(=O)O[C@H]1CC[C@]2(C=O)[C@H]3CC[C@]4(C)[C@@H](C5=CC(=O)OC5)CC[C@]4(O)[C@@H]3CC[C@]2(O)C1 | µM | = | 2.68
